The reported numbers originate from patent EP4700040A1.

# target: Large subunit-rSCFV5 fusion protein
# Sequence (chain, as listed by the source): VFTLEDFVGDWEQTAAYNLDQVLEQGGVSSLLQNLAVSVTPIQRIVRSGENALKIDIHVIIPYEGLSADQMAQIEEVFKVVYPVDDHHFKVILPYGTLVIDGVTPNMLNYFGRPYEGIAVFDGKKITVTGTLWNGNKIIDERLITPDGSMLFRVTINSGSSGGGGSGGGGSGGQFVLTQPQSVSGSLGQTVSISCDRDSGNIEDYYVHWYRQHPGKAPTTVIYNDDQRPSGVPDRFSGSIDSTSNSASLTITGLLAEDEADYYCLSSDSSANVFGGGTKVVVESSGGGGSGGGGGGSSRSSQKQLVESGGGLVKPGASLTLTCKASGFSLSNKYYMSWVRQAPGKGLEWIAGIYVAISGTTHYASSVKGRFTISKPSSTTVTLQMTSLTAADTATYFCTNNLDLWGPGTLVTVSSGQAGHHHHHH
# experiment: cell-based or functional assay

- binder: "VSGYRLFDRKW (peptide, part only; not given: rSCFV18 scFv part, part only) [rSCFV18-small subunit mutant fusion protein RC-033]"
  Signal-to-noise ratio: 10.4
- binder: "VSGYRIFDKKS (peptide, part only; not given: rSCFV18 scFv part, part only) [rSCFV18-small subunit mutant fusion protein RC-044]"
  Signal-to-noise ratio: 8
- binder: "VEGYRLFDRKW (peptide, part only; not given: rSCFV18 scFv part, part only) [rSCFV18-small subunit mutant fusion protein RB186]"
  Signal-to-noise ratio: 45.1
- binder: "VEGWRLFDRVS (peptide, part only; not given: rSCFV18 scFv part, part only) [rSCFV18-small subunit mutant fusion protein RC-237]"
  Signal-to-noise ratio: 5
- binder: "VEGYRLFEKVW (peptide, part only; not given: rSCFV18 scFv part, part only) [rSCFV18-small subunit mutant fusion protein RB172]"
  Signal-to-noise ratio: 36.9
- binder: "VDGYRLFEKVS (peptide, part only; not given: rSCFV18 scFv part, part only) [rSCFV18-small subunit mutant fusion protein RC-263]"
  Signal-to-noise ratio: 7
